target: T1, human apical domain of CD71 (human, UniProt P02786 189-383, limits assumed); assay: primary ELISA; also: test concentration or dose not given here
T1 construct: domain: apical domain
T1 sequence (P02786 189-383 limits assumed): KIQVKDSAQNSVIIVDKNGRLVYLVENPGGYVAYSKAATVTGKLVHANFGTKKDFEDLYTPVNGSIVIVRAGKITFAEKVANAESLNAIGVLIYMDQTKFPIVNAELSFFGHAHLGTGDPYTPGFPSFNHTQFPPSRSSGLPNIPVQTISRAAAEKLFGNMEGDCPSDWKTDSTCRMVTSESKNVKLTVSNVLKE

binder	RLU [RLU]
CD71-binding FN3 domain SEQ ID NO 400 (designed binder) MLPAPKNLVVSRVTEDSARLSWTAPDAAFDSFFIGYLEPQPPGEAIHLFVPGSERSYDLTGLKPGTEYNVTIQGVKGGFPSGPLHATFTT	6.54e+06
CD71-binding FN3 domain SEQ ID NO 376 (designed binder) MLPAPKNLVVSRVTEDSARLSWTAPDAAFDSFFIGYLEPQPPGEAIALLVPGSERSYDLTGLKPGTEYNVTIQGVKGGFPSNPLEAKFTT	6.47e+06
CD71-binding FN3 domain SEQ ID NO 416 (designed binder) MLPAPKNLVVSRVTEDSARLSWTAPDAAFDSFFIGYLEPQPPGEAIALYVPGSERSYDLTGLKPGTEYNVTIQGVKGGFPSLPLVATFTT	6.32e+06
CD71-binding FN3 domain SEQ ID NO 355 (designed binder) MLPAPKNLVVSRVTEDSARLSWTAPDAAFDSFFIGYLEPQPPGEAIHLYVPGSERSYDLTGLKPGTEYNVTIQGVKGGFPSHPLYADFTT	5.91e+06
CD71-binding FN3 domain SEQ ID NO 380 (designed binder) MLPAPKNLVVSRVTEDSARLSWTAPDAAFDSFFIGYLEPQPPGEAIGLFVPGSERSYDLTGLKPGTEYNVTIQGVKGGFPSMPLSAIFTT	6.5e+06
CD71-binding FN3 domain SEQ ID NO 399 (designed binder) MLPAPKNLVVSRVTEDSARLSWTAPDAAFDSFFIGYLEPQPPGEAITLYVPGSERSYDLTGLKPGTEYNVTIQGVKGGFPSTPLTATFTT	5.04e+06
CD71-binding FN3 domain SEQ ID NO 404 (designed binder) MLPAPKNLVVSRVTEDSARLSWTAPDAAFDSFFIGYLEPQPPGEAIHLLVPGSERSYDLTGLKPGTEYNVTIQGVKGGFPSEPLLAIVTT	5.66e+06
